src = patent US8962637B2

measured_on: UniProt P12931
Sequence (P12931 whole entry, looked up): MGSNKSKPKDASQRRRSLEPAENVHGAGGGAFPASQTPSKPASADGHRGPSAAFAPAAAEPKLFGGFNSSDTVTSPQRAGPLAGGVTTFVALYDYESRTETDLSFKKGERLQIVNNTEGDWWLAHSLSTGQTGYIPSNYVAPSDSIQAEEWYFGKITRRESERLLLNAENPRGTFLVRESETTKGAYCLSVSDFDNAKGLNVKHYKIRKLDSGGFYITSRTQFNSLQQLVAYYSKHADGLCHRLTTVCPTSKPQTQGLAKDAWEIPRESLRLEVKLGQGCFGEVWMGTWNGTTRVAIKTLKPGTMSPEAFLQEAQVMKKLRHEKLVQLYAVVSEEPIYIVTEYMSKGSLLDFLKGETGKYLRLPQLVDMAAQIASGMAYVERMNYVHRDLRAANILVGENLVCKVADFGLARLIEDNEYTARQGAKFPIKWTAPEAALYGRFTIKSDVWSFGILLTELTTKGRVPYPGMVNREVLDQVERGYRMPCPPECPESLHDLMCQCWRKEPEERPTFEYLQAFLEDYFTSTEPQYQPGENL
assay_summary: TR-FRET c-Src kinase assay
Type: biochemical
assay_context: read-out: c-SRC % inhibition at 1 μM; 1 μM; ATP 50 μM
Procedure: Compounds were screened in the TR-FRET assay for JAK2 and c-Src kinase inhibition. Ultra light poly GT (Perkin Elmer) was used as the substrate for JAK2 and c-Src with the ATP concentration of 10 μM and 50 μM, respectively. […] The dose-response curve fitting was done using GraphPad Prism software.
Catalogue of inhibition at 1 µM values
Unit % implied. Number only.

- Cc1ccc(NC(=O)NC2CCCC2)cc1N1CCc2nc(Nc3ccc(OCCN4CCCC4)cc3)ncc2C1: 99
- Cc1ccc(NC(=O)c2cc(C(F)(F)F)ccn2)cc1N1CCc2nc(Nc3ccc(N4CCN(C)CC4)cc3)ncc2C1=O: 87

Read the next record carefully.
Fill in inhibition at 1 µM for record "O=C(Nc1ccc(Cl)c(N2CCc3nc(Nc4ccc(OCCN5CCCC5)cc4)ncc3C2=O)c1)c1cccc(C(F)(F)F)c1"
77

====

System: A431 cancer cell line
assay_summary: Inhibition of cell growth in A431
Type: cell-based
assay_context: Homo sapiens, A-431
Catalogue of pEC50 values
To interpret pEC50, take it as minus log10 of a concentration measured in moles per litre.

• Cc1ccc(NC(=O)c2cccc(C(F)(F)F)c2)cc1N1CCc2nc(Nc3ccc(C(=O)NCCCN4CCCC4)cc3)ncc2C1=O = 6.29
• CN1CCN(c2ccc(Nc3ncc4c(n3)CCN(c3cc(NC(=O)c5cccc(C(F)(F)F)c5)ccc3Cl)C4=O)cc2)CC1 = 6.22
• Cc1ccc(NC(=O)c2cccc(C(F)(F)F)c2)cc1N1CCc2nc(Nc3ccc(C(=O)NCCO)cc3)ncc2C1 = 7.21

Fill in pEC50 for record "O=C(Nc1ccc(Cl)c(N2CCc3nc(Nc4ccc(OCCN5CCCC5)cc4)ncc3C2=O)c1)c1cccc(C(F)(F)F)c1"
5.89

Fill in pEC50 for record "Cc1ccc(NC(=O)c2cccc(C(F)(F)F)c2)cc1N1CCc2nc(Nc3ccc(OCCCN4CCOCC4)cc3)ncc2C1=O"
5.29

Fill in pEC50 for record "Cc1ccc(NC(=O)c2cccc(C(F)(F)F)c2)cc1N1CCc2nc(Nc3ccc(CC(=O)N4CCN(C)CC4)cc3)ncc2C1=O"
6.87

Fill in pEC50 for record "Cc1ccc(NC(=O)c2cccc(C(F)(F)F)c2)cc1N1CCc2nc(Nc3ccc(OCCCN4CCN(C)CC4)cc3)ncc2C1=O"
5.97

====

Catalogue of inhibition at 1 µM values
measured_on: JAK2 (Homo sapiens (Human))
Sequence (O60674 whole entry): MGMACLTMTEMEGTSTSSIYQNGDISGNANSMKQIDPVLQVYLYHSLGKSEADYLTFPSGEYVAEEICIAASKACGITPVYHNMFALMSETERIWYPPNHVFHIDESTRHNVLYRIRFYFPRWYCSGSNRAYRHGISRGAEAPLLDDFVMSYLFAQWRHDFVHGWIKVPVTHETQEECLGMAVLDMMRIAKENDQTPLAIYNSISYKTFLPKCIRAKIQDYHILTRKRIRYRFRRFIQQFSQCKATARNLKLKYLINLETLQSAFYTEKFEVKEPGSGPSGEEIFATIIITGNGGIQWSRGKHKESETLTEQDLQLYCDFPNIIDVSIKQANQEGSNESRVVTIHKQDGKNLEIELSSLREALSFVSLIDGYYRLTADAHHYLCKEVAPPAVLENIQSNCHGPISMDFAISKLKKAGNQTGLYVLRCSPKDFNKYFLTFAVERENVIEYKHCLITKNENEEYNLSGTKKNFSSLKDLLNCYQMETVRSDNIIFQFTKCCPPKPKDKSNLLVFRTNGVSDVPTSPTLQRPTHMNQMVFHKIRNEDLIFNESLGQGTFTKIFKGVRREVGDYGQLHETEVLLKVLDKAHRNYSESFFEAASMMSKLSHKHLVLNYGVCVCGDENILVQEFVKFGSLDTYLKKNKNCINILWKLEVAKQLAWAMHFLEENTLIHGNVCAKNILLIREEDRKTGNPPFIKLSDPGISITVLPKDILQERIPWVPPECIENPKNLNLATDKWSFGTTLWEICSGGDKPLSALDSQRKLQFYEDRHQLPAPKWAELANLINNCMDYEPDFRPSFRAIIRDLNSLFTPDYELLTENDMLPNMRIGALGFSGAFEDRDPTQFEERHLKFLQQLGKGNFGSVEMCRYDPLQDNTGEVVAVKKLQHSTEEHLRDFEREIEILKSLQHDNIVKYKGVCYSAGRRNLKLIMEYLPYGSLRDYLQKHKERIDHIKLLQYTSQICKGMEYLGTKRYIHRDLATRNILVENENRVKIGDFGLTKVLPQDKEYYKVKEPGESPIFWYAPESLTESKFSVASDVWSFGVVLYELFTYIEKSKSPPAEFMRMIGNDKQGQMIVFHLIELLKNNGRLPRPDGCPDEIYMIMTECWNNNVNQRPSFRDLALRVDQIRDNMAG
assay_summary: TR-FRET JAK2 kinase assay
Assay type: biochemical
assay_context: read-out: JAK2 % inhibition at 1 μM; 1 μM; ATP 10 μM

Fill in inhibition at 1 µM for record "Cc1ccc(NC(=O)c2cccc(C(F)(F)F)c2)cc1N1CCc2nc(Nc3ccc(N4CCNCC4)cc3)ncc2C1=O"
92%

Fill in inhibition at 1 µM for record "O=C(Nc1ccc(Cl)c(N2CCc3nc(Nc4ccc(OCCN5CCCC5)cc4)ncc3C2=O)c1)c1cccc(C(F)(F)F)c1"
93%

Fill in inhibition at 1 µM for record "CNC(=O)c1ccc(Nc2ncc3c(n2)CCN(c2cc(NC(=O)c4cc(C(F)(F)F)ccn4)ccc2Cl)C3)cc1"
92%

Fill in inhibition at 1 µM for record "Cc1ccc(NC(=O)c2cccc(C(F)(F)F)c2)cc1N1CCc2nc(Nc3ccc(C(=O)N4CCN(C)CC4)cc3)ncc2C1=O"
97%

Fill in inhibition at 1 µM for record "Cc1ccc(NC(=O)CCC(F)(F)F)cc1N1CCc2nc(Nc3ccc(C(=O)N4CCN(C)CC4)cc3)ncc2C1"
91%

Fill in inhibition at 1 µM for record "Cc1ccc(NC(=O)c2cccc(C(F)(F)F)c2)cc1N1CCc2nc(Nc3ccc(OCCCN4CCOCC4)cc3)ncc2C1=O"
85%

Fill in inhibition at 1 µM for record "Cc1ccc(NC(=O)c2cccc(C(F)(F)F)c2)cc1N1CCc2nc(Nc3ccc(OCCCN4CCN(C)CC4)cc3)ncc2C1=O"
91%
